Each recorded value in this set is attributed to PubChem BioAssay AID1159580.

normalized growth values by entry
Test: chemical genetic growth profiling, strain panel (AID 1159580);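 note: tested at 20 µM; growth read once vehicle control cultures reached saturation at 30 °C; 1 = growth at the plate median or of vehicle wells; lower values mean less growth of the strain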
Details: S. cerevisiae deletion strains, growth OD, locus YJL164C, strain tpk1, hits give low values
In all, about 5,500 compounds went through this assay and about 2,000 (36%) were called active. About 18% were inconclusive and are not listed. The list shows a part of the results.

Recorded results for 4 compounds are shown here.
- c1ccc2[nH]c(-c3cscn3)nc2c1: 0.966 (inactive)
- CC1=C(/C=C/C(C)=C/C=C/C(C)=C/C(=O)O)C(C)(C)CCC1: 0.971 (inactive)
- COc1ccc(CN(CCN(C)C)c2ncccn2)cc1: 1.02 (inactive)
- O=C(O)c1cc(=O)c2c(OCC(O)COc3cccc4oc(C(=O)O)cc(=O)c34)cccc2o1: 1 (inactive)

What value of normalized growth has been recorded for this entry: "Nc1nc2ncc(CNc3ccc(C(=O)N[C@@H](CCC(=O)O)C(=O)O)cc3)nc2c(=O)[nH]1"
0.994 (inactive)

What value of normalized growth has been recorded for this entry: CCCNC(C)C(=O)Nc1ccccc1C (stereo not drawn)
0.958 (inactive)

What value of normalized growth has been recorded for this entry: "Nc1nccs1"
0.997 (inactive)

What value of normalized growth has been recorded for this entry: "O=C1CN(/N=C\c2ccc([N+](=O)[O-])o2)C(=O)N1"
0.957 (inactive)

* * *

Experiment: chemical genetic growth profiling, strain panel (AID 1159580);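 note: tested at 20 µM; growth read once vehicle control cultures reached saturation at 30 °C; 1 = growth at the plate median or of vehicle wells; lower values mean less growth of the strain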
Conditions: S. cerevisiae deletion strains, growth OD, locus YLR384C, strain iki3, hits give low values
The whole screen tested about 5,500 compounds, of which about 2,000 (36%) were called active. Roughly 18% stayed inconclusive and do not appear here. The list shows a part of the results.
measured_attribute: normalized growth
# answer = number (no unit)

Recorded results for 8 molecules are shown here.
• CC12CCC(CC1)C(C)(C)O2 = 0.974
• COc1ccc(/C=C/C(=O)O)cc1OC = 0.998
• CC1=C(/C=C/C(C)=C/C=C/C(C)=C/C=C/C=C(C)/C=C/C=C(C)/C=C/C2=C(C)CCCC2(C)C)C(C)(C)CCC1 = 1
• COP(=S)(OC)Oc1ccc(SC)c(C)c1 = 1.02
• O=C(O)P(=O)(O)O = 1
• CS(=O)(=O)OCCCCOS(C)(=O)=O = 1.01
• S=c1[nH]c2ccccc2s1 = 0.982
• O=C1N=C(O)CN1/N=C\c1ccc(-c2ccc([N+](=O)[O-])cc2)o1 = 0.974

What value of normalized growth has been recorded for this entry: "O=c1cccc2n1C[C@H]1CNCC2C1"
1

What value of normalized growth has been recorded for this entry: "NC(=O)N/N=C\c1ccc([N+](=O)[O-])o1"
1.01

What value of normalized growth has been recorded for this entry: "CN(Cc1cc(Br)cc(Br)c1N)C1CCCCC1"
1.04

* * *

Assay: chemical genetic growth profiling, strain panel (AID 1159580);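 note: tested at 20 µM; growth read once vehicle control cultures reached saturation at 30 °C; 1 = growth at the plate median or of vehicle wells; lower values mean less growth of the strain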
Conditions: S. cerevisiae deletion strains, growth OD, locus YPR119W, strain clb2
Among all 5,500 compounds or so, about 2,000 (36%) were called active. Not shown: some 18% with an inconclusive outcome. No stated cut-off is given here; in the data, active means normalized growth mostly below about 0.91 (no sharp cut-off); inconclusive means no clear call, values can overlap the other calls; inactive means mostly above about 0.92. This is one part of the list.
Your answer must be one of the following: 1.0 (active), 0.0 (inactive)

Examples with answers:
• CC12CCC3C(CC=C4CC(O)CCC43C)C1CCC2=O (centres undefined) = 0.0
• CCn1cc(C(=O)O)c(=O)c2cnc(N3CCNCC3)nc21 = 0.0
• CCOC(=O)CCCCCCCCCCCCC1C=CCC1 (centres undefined) = 1.0
• CCOC(N)=O = 0.0
• COc1ccccc1-c1cc(=O)c2c(OC)cccc2o1 = 0.0
• O=C(O)c1cc(O)c(O)c(O)c1 = 0.0
• COP(=S)(OC)Oc1ccc(SC)c(C)c1 = 0.0
• O=C(O)CCCCCCCCCCCCC1C=CCC1 (centres undefined) = 0.0

Now examine the next entry.
What classification did CC(=O)Oc1cc(C)c2c(c1C(OC(C)=O)OC(C)=O)Oc1c(c(C)c(OC(C)=O)c3c1C(OC(C)=O)OC3=O)OC2=O (centres undefined) end up with in this test?
0.0
